System: Ba/F3-TEL-JAK2 cells
Assay: CellTiter-Glo proliferation of Ba/F3-TEL-JAK2 cells
Assay type: cell-based
Settings: Mus musculus, murine B lymphocyte BaF3 with TEL-human JAK2 kinase domain
endpoint_name: IC50 (nM)

[
  {
    "molecule": "O=C([C@@H]1CC1(F)F)N1[C@H]2CS[C@@H]1CN(c1ccnc(Nc3cnn(C4(CO)CC4)c3)n1)C2",
    "measured_value": 427
  },
  {
    "molecule": "O=C([C@@H]1CC1(F)F)N1[C@H]2CS[C@@H]1CN(c1ccnc(Nc3cnn(CCO)c3)n1)C2",
    "measured_value": 173
  },
  {
    "molecule": "Cn1cc(Nc2nccc(N3CC4CSC(C3)N4C(=O)[C@@H]3CC3(F)F)n2)cn1 (stereo partly drawn)",
    "measured_value": 87
  }
]
